- TESTED TARGET: 6-phosphogluconate dehydrogenase, decarboxylating (Homo sapiens) (UniProt P52209)
- Sequence (P52209 whole entry, looked up): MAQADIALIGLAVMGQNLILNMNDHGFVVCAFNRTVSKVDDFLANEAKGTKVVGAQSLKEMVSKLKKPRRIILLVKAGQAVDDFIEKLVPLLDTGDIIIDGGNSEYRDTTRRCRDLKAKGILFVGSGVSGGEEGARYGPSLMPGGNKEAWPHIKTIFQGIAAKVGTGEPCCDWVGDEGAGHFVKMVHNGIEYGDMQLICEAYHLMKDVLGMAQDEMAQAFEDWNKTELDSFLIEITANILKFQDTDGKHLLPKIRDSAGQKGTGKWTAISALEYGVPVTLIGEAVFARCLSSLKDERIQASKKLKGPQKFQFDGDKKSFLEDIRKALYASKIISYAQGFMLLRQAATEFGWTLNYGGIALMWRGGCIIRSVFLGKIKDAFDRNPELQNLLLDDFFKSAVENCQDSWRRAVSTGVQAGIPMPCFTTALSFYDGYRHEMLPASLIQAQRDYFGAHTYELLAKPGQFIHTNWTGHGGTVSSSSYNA
- METHOD: 6PGD enzyme inhibitors, primary screen, biochemical, human, recombinant enzyme, NADPH absorbance (AID 1159550)
- STATED CONDITIONS: recombinant 6PGD, NADPH absorbance 341 nm; at 10 µM; hits give high values
REPORTED METRIC: inhibition (%)
Answer in %, number only, no unit symbol.

1. N[C@@H](CCC(=O)N[C@@H](CSC(CC(=O)O)C(=O)O)C(=O)NCC(=O)O)C(=O)O (stereo not given in full): 6.35

Turning to the following molecule.
Requested read-out inhibition, target or system 6-phosphogluconate dehydrogenase, decarboxylating (Homo sapiens) (UniProt P52209), entry "O=C1c2ccccc2C(=O)c2c(O)c(O)cc(O)c21"
17.9
